tested on: human SMAD7 mRNA; test: Antisense inhibition of human SMAD7 mRNA expression in Hep3B cells by 5-10-5 MOE gapmers, single concentration, electroporation, RT-PCR (Example 1, Study 1 and 2); type: cell-based; conditions: electroporation with 15,000 nM antisense oligonucleotide (Study 2), 5-10-5 MOE gapmers targeting SEQ ID NO: 1 and 2
Strand notation (5' to 3'): a small letter for the sugar, then the base; units joined by * are phosphorothioate-linked, units joined directly phosphodiester-linked; [ ] holds rarer units or linkages, { } end groups; capitals alone tell only the bases. e = 2'-O-(2-methoxyethyl) (MOE); [5mC] = 5-methylcytosine; d = 2'-deoxy (DNA)
Readout Label: % Inhibition of SMAD7 mRNA (%)
Express the result in % but write the number alone.

771409 (antisense e[5mC]*e[5mC]*e[5mC]*e[5mC]*eT*dG*d[5mC]*dG*d[5mC]*d[5mC]*d[5mC]*dT*d[5mC]*d[5mC]*dT*e[5mC]*e[5mC]*eT*e[5mC]*eG) [compound 771409] | 33

GET /value?item= 771864 (antisense eA*eG*eA*e[5mC]*eA*dA*dA*dG*dA*dT*d[5mC]*dA*d[5mC]*dA*dG*eA*eT*e[5mC]*eA*e[5mC]) [compound 771864] &field=% Inhibition of SMAD7 mRNA returns 27

GET /value?item= 771928 (antisense e[5mC]*e[5mC]*e[5mC]*e[5mC]*eA*dT*dT*dG*d[5mC]*d[5mC]*dA*d[5mC]*dT*dA*d[5mC]*eA*eG*eA*eG*eA) [compound 771928] &field=% Inhibition of SMAD7 mRNA returns 27

GET /value?item= 771648 (antisense e[5mC]*eA*eT*eA*e[5mC]*dG*dA*dG*dT*dG*dT*dA*dT*dG*dA*eG*eT*eT*eG*eT) [compound 771648] &field=% Inhibition of SMAD7 mRNA returns 17

GET /value?item= 771417 (eA*e[5mC]*e[5mC]*eG*eG*d[5mC]*d[5mC]*d[5mC]*d[5mC]*dA*dT*dG*d[5mC]*dG*d[5mC]*eT*e[5mC]*eG*eG*e[5mC]; antisense) [compound 771417] &field=% Inhibition of SMAD7 mRNA returns 24
